Assay: NCI Yeast Anticancer Drug Screen. Data for the mec2-1 strain (AID 157)
Details: S. cerevisiae mec2-1 strain, at 50.0 µM, hits give high values
About 79,000 compounds went through this panel and 15% of them were active in at least one assay; those are over-represented in the sample as a whole.
The label depends only on growth inhibition: True if it is at least -10%, False if it is smaller.

>>> class_assignment("FC(F)(F)c1cccc2[nH]cnc12")
"True"
>>> class_assignment("CCC1(C)C(=O)NC(=O)N1C(C)=O (stereo unspecified)")
"False"
>>> class_assignment("CN1CCN(C(=S)N(C(=O)c2ccco2)c2ccccc2)CC1")
"False"
>>> class_assignment("CCN(CC)C(=O)C1CCNCC1")
"False"
>>> class_assignment("COc1cccc2c(Nc3ccc(S(=O)(=O)Nc4ncccn4)cc3)c3ccc([N+](=O)[O-])cc3nc12")
"True"
>>> class_assignment("COc1ccccc1OCC(COC(=O)Nc1ccccc1)OC(=O)Nc1ccccc1 (stereo unspecified)")
"False"
>>> class_assignment("CN(C)c1ccc(C(=C2C=CC(=[N+](C)C)C=C2)c2c(O)c(S(=O)(=O)[O-])cc3cc(S(=O)(=O)O)ccc23)cc1")
"False"
>>> class_assignment("COc1ccc(C(=O)/C=C/c2ccc(OCCCCCCCCCCOc3ccc(/C=C/C(=O)c4ccc(OC)cc4)cc3)cc2)cc1")
"False"
>>> class_assignment("Cc1c(C(=O)O)c2ccccc2[nH]c1=O")
"True"
>>> class_assignment("ONc1ccc(Cl)cc1")
"False"
>>> class_assignment("COc1ccc2c(c1)OC(C)(C)c1c-2n(C)c2c(F)cccc2c1=O")
"True"
